Molecular target: human Y5 receptor (Homo sapiens, UniProt Q15761)
Sequence (Q15761 whole entry): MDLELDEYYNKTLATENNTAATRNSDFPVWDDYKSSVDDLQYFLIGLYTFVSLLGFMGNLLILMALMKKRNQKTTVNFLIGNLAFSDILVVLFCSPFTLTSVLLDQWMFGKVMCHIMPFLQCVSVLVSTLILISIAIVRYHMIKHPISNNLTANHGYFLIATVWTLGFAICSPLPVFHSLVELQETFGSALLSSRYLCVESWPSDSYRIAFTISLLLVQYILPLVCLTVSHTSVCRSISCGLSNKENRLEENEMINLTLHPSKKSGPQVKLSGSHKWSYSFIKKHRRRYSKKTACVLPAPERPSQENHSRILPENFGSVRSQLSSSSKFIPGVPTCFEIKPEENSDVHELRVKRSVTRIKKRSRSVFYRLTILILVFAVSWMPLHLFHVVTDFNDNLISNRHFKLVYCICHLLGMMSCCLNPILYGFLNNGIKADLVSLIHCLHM
Test: Y5 receptor binding inhibition test
Conditions: 2 h, read-out: % Inhibition ratio (10 μM)
readout.kind: inhibition at 10 µM (%)
// return numeric value only (unit: %, not printed)

Use these answered entries as a reference point.
>>> observed_value("CCn1c2ccccc2c2cc(NC(=O)CCNS(=O)(=O)c3cccc4ccccc34)ccc21 [Compound 1-4]")
100
>>> observed_value("CC(C)S(=O)(=O)NCCCCCNC(=O)c1ccc2c(c1)c1c(n2CCO)CCCC1 [Compound 1-59]")
93

Consider the additional compound presented here.
Task: Quick check: inhibition at 10 µM of CCn1c2c(c3cc(C(=O)NCCOCCNS(C)(=O)=O)ccc31)CCCC2 [Compound 1-51] ?
Output: 80

----------
Biological target: human Y5 receptor (Homo sapiens)
Experiment: Y5 receptor binding inhibition test
Conditions: test compound 10 μM; 3H-NPY; membrane of insect cells expressing human Y5 receptor; 4° C., 2 hours; relative to Y5 specific binding in solvent group
Each entry below carries its recorded % Inhibition ratio (10 μM).
API: value field is a number in %; no unit string.

>>> observed_value("CC(C)n1c2c(c3cc(NC(=O)N(C)CCc4ccccn4)ccc31)CCC2")
83
>>> observed_value("CC(C)n1c2c(c3cc(NC(=O)N(C)CCSc4ncc[nH]4)ccc31)CCCC2")
101

Task: What value of % Inhibition ratio (10 μM) has been recorded for this entry: COCCN(CCOC)C(=O)Nc1ccc2c(c1)c1c(n2C(C)C)CCCC1
Output: 102

Task: Can you look up the measured % Inhibition ratio (10 μM) of CC(C)n1c2c(c3cc(NC(=O)N(C)Cc4ccncc4)ccc31)CCCC2 for me?
Output: 100

Task: // query % Inhibition ratio (10 μM) value for entry CC(C)n1c2c(c3cc(NC(=O)N4CCN(c5ccccn5)CC4)ccc31)CCCC2
Output: 89

Task: // query % Inhibition ratio (10 μM) value for entry CC(C)n1c2c(c3cc(NC(=O)N4CCCCC4CCO)ccc31)CCCC2 (stereo not shown)
Output: 95

Task: Can you share its % Inhibition ratio (10 μM)? I mean this compound: CC(C)n1c2c(c3cc(NC(=O)N4CCCCC4CO)ccc31)CCCC2 (stereo not shown)
Output: 91

Task: So what does the record say about % Inhibition ratio (10 μM) for CC(C)n1c2c(c3cc(NC(=O)N4CCSCC4)ccc31)CCCC2 ?
Output: 88

Task: Any idea what its % Inhibition ratio (10 μM) is? The compound is CC(C)n1c2c(c3cc(NC(=O)N4CCN(C)CC4)ccc31)CCCC2
Output: 75

Task: % Inhibition ratio (10 μM) for CC(C)N(C)C(=O)Nc1ccc2c(c1)c1c(n2C(C)C)CCCC1 ?
Output: 97

Task: Any idea what its % Inhibition ratio (10 μM) is? The compound is CC(C)n1c2c(c3cc(NC(=O)N4CCCCC4)ccc31)CCCC2
Output: 99

Task: Consider the compound CC(C)n1c2c(c3cc(NC(=O)N4CCSC4)ccc31)CCCC2 and give its measured % Inhibition ratio (10 μM).
Output: 96

Task: Using the record for CC(C)n1c2c(c3cc(NC(=O)N4CCCC(CO)C4)ccc31)CCCC2 (stereo not shown) , report its % Inhibition ratio (10 μM).
Output: 97

----------
Reported values of inhibition at 10 µM for individual entries
Molecular target: human Y5 receptor (Homo sapiens)
Test: Y5 receptor binding inhibition test
Details: 2 h, read-out: % Inhibition ratio (10 μM)

Answered cases to consult:
>>> observed_value("CCn1c2ccccc2c2cc(C(=O)NCCCCCNS(C)(=O)=O)ccc21")
"99%"
>>> observed_value("CCn1c2c(c3cc(NC(C)=O)ccc31)CCC2")
"89%"
>>> observed_value("CCn1c2c(c3cc(C(=O)NCCOCCn4nnnc4N)ccc31)CCCC2")
"85%"
>>> observed_value("CCn1c2c(c3c(O)c(C(=O)NCCCCCNS(=O)(=O)c4cccc5ccccc45)ccc31)CCCC2")
"69%"

Task: Returns the measured inhibition at 10 µM for the input compound. Input: CCn1c2ccccc2c2cc(C(=O)NCCCCCNS(=O)(=O)N(C)C)ccc21
Output: 98%
